All values here come from paper PMC4242493.

Molecular target: MaxL homodimer (Homo sapiens, UniProt P61244 1-160)
Sequence (P61244 whole entry): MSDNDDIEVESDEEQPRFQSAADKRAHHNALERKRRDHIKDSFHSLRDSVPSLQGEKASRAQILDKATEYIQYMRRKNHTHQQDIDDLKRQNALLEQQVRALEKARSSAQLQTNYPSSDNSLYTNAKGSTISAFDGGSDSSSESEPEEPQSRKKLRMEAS
Assay: universal protein-binding microarray (PBM); PBS-based mixture, 10 nM His-tagged protein dimer, 2% milk, 200 ng/uL BSA, 50 ng/uL salmon testes DNA, 0.02% TX-100; detection with Alexa 488 anti-His antibody;; high values mean tight binding;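 note: fluorescence intensity normalized to that of the highest-ranked 8-mer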
Conditions: protein: recombinant; tags: C-terminal His-tag (pET21a); chain copies: 2; dsDNA, one strand shown
Over roughly 33,000 sequences, “normalized occupancy” has its median near 0.075; the highest 2% begin near 0.095. The entries come from a sample that favours the highest values as a whole.
experimental.endpoint: binding signal (normalized occupancy)
Give the number; normalized occupancy is assumed, so skip it.

Please report the recorded binding signal for `AGGTGTCG` .
0.0793

Please report the recorded binding signal for `ACCACCTA` .
0.082

Please report the recorded binding signal for `ACGTGTCA` .
0.0923

Please report the recorded binding signal for `GGCATGGA` .
0.0929

Please report the recorded binding signal for `AAGAACAT` .
0.08

Please report the recorded binding signal for `CGCATTCA` .
0.0752

Please report the recorded binding signal for `GTGCACTA` .
0.0769

Please report the recorded binding signal for `ACGTGGAG` .
0.0976

Please report the recorded binding signal for `CACCACGA` .
0.082

Please report the recorded binding signal for `GAAGTGCA` .
0.0728

Please report the recorded binding signal for `ATATGTTA` .
0.0924

Please report the recorded binding signal for `CGACATGA` .
0.0858

Please report the recorded binding signal for `CCTCGTGA` .
0.125

Please report the recorded binding signal for `GATGATTA` .
0.0816

Please report the recorded binding signal for `ACTAGTTA` .
0.0749

Please report the recorded binding signal for `CGACATTC` .
0.0758

Please report the recorded binding signal for `ACTTTAGG` .
0.073

Please report the recorded binding signal for `GACCACCA` .
0.0803

Please report the recorded binding signal for `ACGTGTCT` .
0.0997

Please report the recorded binding signal for `AGACATGG` .
0.0832

Please report the recorded binding signal for `ACGTGTCG` .
0.106

Please report the recorded binding signal for `CATGCTGA` .
0.112

Please report the recorded binding signal for `CTTAGCCA` .
0.0761

Please report the recorded binding signal for `GCATGTCC` .
0.0929

Please report the recorded binding signal for `GCAGGTAA` .
0.0753

Please report the recorded binding signal for `AGCATCCC` .
0.077

Please report the recorded binding signal for `CGCAAGAG` .
0.0757

Please report the recorded binding signal for `AACCACGC` .
0.0983

Please report the recorded binding signal for `ATTGTTAA` .
0.0765

Please report the recorded binding signal for `GCTACCAA` .
0.0737

Please report the recorded binding signal for `GAAAATCA` .
0.0778

Please report the recorded binding signal for `CCTGCTGA` .
0.0756

Please report the recorded binding signal for `AATGTCAA` .
0.0742

Please report the recorded binding signal for `CCGTGGAG` .
0.0796

Please report the recorded binding signal for `CCCATGGC` .
0.0849

Please report the recorded binding signal for `AGACATGA` .
0.0878

Please report the recorded binding signal for `CACCACGG` .
0.0774

Please report the recorded binding signal for `CCGTGTCG` .
0.075

Please report the recorded binding signal for `AAACTCAT` .
0.0797

Please report the recorded binding signal for `AGATGTTG` .
0.0819

Please report the recorded binding signal for `GTCTTCAA` .
0.0773

Please report the recorded binding signal for `AACACATA` .
0.0823

Please report the recorded binding signal for `AGGCTCAT` .
0.0751

Please report the recorded binding signal for `ATGACGCG` .
0.0781

Please report the recorded binding signal for `AAATGTTG` .
0.0794

----------
Molecular target: MaxL homodimer (Homo sapiens, UniProt P61244 1-160)
Experiment: universal protein-binding microarray (PBM); PBS-based mixture, 10 nM His-tagged protein dimer, 2% milk, 200 ng/uL BSA, 50 ng/uL salmon testes DNA, 0.02% TX-100; detection with Alexa 488 anti-His antibody;; high values mean tight binding;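 note: fluorescence intensity normalized to that of the highest-ranked 8-mer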
Conditions: protein: recombinant; tags: C-terminal His-tag (pET21a); chain copies: 2; dsDNA, one strand shown
Over roughly 33,000 sequences, “normalized occupancy” has its median near 0.075; the highest 2% begin near 0.095. For the sample, the highest values were picked, then their nearest neighbours and some sequences at random.
experimental.endpoint: binding signal (normalized occupancy)
Give the number; normalized occupancy is assumed, so skip it.

Please report the recorded binding signal for `ACATTTTC` .
0.0796

Please report the recorded binding signal for `AGAACGCG` .
0.0788

Please report the recorded binding signal for `ACGTACAG` .
0.0776

Please report the recorded binding signal for `CCCACGTC` .
0.0804

Please report the recorded binding signal for `CATCACGA` .
0.0811

Please report the recorded binding signal for `TCTTCGCA` .
0.0796

Please report the recorded binding signal for `TATAAACA` .
0.0776

----------
Consider the following sequences; for each one, report its binding signal.
Biological target: MaxL homodimer (Homo sapiens, UniProt P61244 1-160)
Experiment: universal protein-binding microarray (PBM); PBS-based mixture, 10 nM His-tagged protein dimer, 2% milk, 200 ng/uL BSA, 50 ng/uL salmon testes DNA, 0.02% TX-100; detection with Alexa 488 anti-His antibody;; high values mean tight binding;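 note: fluorescence intensity normalized to that of the highest-ranked 8-mer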
Conditions: protein: recombinant; tags: C-terminal His-tag (pET21a); chain copies: 2; dsDNA, one strand shown
Over roughly 33,000 sequences, “normalized occupancy” has its median near 0.075; the highest 2% begin near 0.095. The full list was thinned out, with the highest values kept by preference.
Give the number; normalized occupancy is assumed, so skip it.

Please report the recorded binding signal for `AAAAATGG` .
0.078

Please report the recorded binding signal for `CCGTTCTC` .
0.0814

Please report the recorded binding signal for `CAACATCG` .
0.0784

Please report the recorded binding signal for `ATATGCCA` .
0.0822

Please report the recorded binding signal for `AATGTGCC` .
0.0816

Please report the recorded binding signal for `AATGTACA` .
0.0818

Please report the recorded binding signal for `ACATCACC` .
0.0798

Please report the recorded binding signal for `CACGTCCG` .
0.0797

----------
Biological target: MaxL homodimer (Homo sapiens, UniProt P61244 1-160)
Assay: universal protein-binding microarray (PBM); PBS-based mixture, 10 nM His-tagged protein dimer, 2% milk, 200 ng/uL BSA, 50 ng/uL salmon testes DNA, 0.02% TX-100; detection with Alexa 488 anti-His antibody;; high values mean tight binding;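 note: fluorescence intensity normalized to that of the highest-ranked 8-mer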
Conditions: protein: recombinant; tags: C-terminal His-tag (pET21a); chain copies: 2; dsDNA, one strand shown
In all, about 33,000 sequences were measured (“normalized occupancy”: median about 0.075, highest 2% from about 0.095 on). This is one part of a sample in which the highest values are shown more often than they occur.
Consider the following sequences; for each one, report its binding signal.
Give the number; normalized occupancy is assumed, so skip it.

Please report the recorded binding signal for `AGGTGTAC` .
0.0803

Please report the recorded binding signal for `CACGAGCG` .
0.082

Please report the recorded binding signal for `CATTGACG` .
0.0792

Please report the recorded binding signal for `CATAATTA` .
0.0816

Please report the recorded binding signal for `CGTTATAA` .
0.079

Please report the recorded binding signal for `AAGGAAAG` .
0.0804

Please report the recorded binding signal for `GCCATCAC` .
0.0781

Please report the recorded binding signal for `ATCCACGG` .
0.0796

Please report the recorded binding signal for `ATGTACAA` .
0.0815

Please report the recorded binding signal for `AAGTGTAT` .
0.0806

Please report the recorded binding signal for `CTCCACGA` .
0.0817

Please report the recorded binding signal for `CGCAATCC` .
0.0789

Please report the recorded binding signal for `GCACGAAA` .
0.078

Please report the recorded binding signal for `GTTAACCA` .
0.0793

Please report the recorded binding signal for `AGCTCCAT` .
0.0804

Please report the recorded binding signal for `AGTACAGG` .
0.0787

Please report the recorded binding signal for `CCGTGTAA` .
0.0797

Please report the recorded binding signal for `AACGAGGC` .
0.0809

Please report the recorded binding signal for `TGGGTGAA` .
0.0791

----------
Target: MaxL homodimer (Homo sapiens, UniProt P61244 1-160)
Assay: universal protein-binding microarray (PBM); PBS-based mixture, 10 nM His-tagged protein dimer, 2% milk, 200 ng/uL BSA, 50 ng/uL salmon testes DNA, 0.02% TX-100; detection with Alexa 488 anti-His antibody;; high values mean tight binding;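 note: fluorescence intensity normalized to that of the highest-ranked 8-mer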
Details: protein: recombinant; tags: C-terminal His-tag (pET21a); chain copies: 2; dsDNA, one strand shown
In all, about 33,000 sequences were measured (“normalized occupancy”: median about 0.075, highest 2% from about 0.095 on). The full list was thinned out, with the highest values kept by preference.
Consider the following sequences; for each one, report its binding signal.
Kindly report the value followed by its unit.

Enter reported binding signal observed with MaxL homodimer (Homo sapiens, UniProt P61244 1-160) for `CCGTGTAG`
0.0808 normalized occupancy

Enter reported binding signal observed with MaxL homodimer (Homo sapiens, UniProt P61244 1-160) for `GTACGTGA`
0.078 normalized occupancy

Enter reported binding signal observed with MaxL homodimer (Homo sapiens, UniProt P61244 1-160) for `CGCACGAA`
0.0816 normalized occupancy

Enter reported binding signal observed with MaxL homodimer (Homo sapiens, UniProt P61244 1-160) for `GACAGTAA`
0.0794 normalized occupancy

Enter reported binding signal observed with MaxL homodimer (Homo sapiens, UniProt P61244 1-160) for `ATGTCACC`
0.08 normalized occupancy

Enter reported binding signal observed with MaxL homodimer (Homo sapiens, UniProt P61244 1-160) for `GTACGTTA`
0.0781 normalized occupancy

Enter reported binding signal observed with MaxL homodimer (Homo sapiens, UniProt P61244 1-160) for `ATTAGTAC`
0.0786 normalized occupancy

Enter reported binding signal observed with MaxL homodimer (Homo sapiens, UniProt P61244 1-160) for `CTGTGTGC`
0.0783 normalized occupancy

Enter reported binding signal observed with MaxL homodimer (Homo sapiens, UniProt P61244 1-160) for `AGGTGTAG`
0.0785 normalized occupancy

Enter reported binding signal observed with MaxL homodimer (Homo sapiens, UniProt P61244 1-160) for `GCTAAATA`
0.079 normalized occupancy

Enter reported binding signal observed with MaxL homodimer (Homo sapiens, UniProt P61244 1-160) for `AGGCATAG`
0.0784 normalized occupancy

Enter reported binding signal observed with MaxL homodimer (Homo sapiens, UniProt P61244 1-160) for `GCACGTCC`
0.0788 normalized occupancy

Enter reported binding signal observed with MaxL homodimer (Homo sapiens, UniProt P61244 1-160) for `GGACGTTA`
0.0789 normalized occupancy

Enter reported binding signal observed with MaxL homodimer (Homo sapiens, UniProt P61244 1-160) for `CCGTGACG`
0.0782 normalized occupancy
